target.system: Human CD3eg linker (human)
Sequence (chain, as listed by the source limits assumed): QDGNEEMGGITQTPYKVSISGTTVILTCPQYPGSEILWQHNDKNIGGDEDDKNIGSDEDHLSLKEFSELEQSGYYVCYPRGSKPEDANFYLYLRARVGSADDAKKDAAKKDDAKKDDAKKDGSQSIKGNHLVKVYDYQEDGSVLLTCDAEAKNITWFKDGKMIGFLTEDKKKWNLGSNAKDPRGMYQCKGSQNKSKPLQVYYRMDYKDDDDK
procedure.text: SPR; fold vs parent H183/L072
Would you kindly list fold change of affinity for each of these binders?

Solved cases (4 shown):
| binder | recorded.result |
| --- | --- |
| H183/L072 VL Q24P (antibody, name in Kabat numbering, V domains shown) VH: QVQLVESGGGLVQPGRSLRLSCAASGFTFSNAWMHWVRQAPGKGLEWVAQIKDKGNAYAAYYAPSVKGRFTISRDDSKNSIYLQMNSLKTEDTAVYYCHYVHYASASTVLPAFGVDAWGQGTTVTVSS VL: DIVMTQSPLSLPVTPGEPASISCPASQELVHMNRNTYLHWYQQKPGQAPRLLIYKVSNRFPGVPDRFSGSGSGTDFTLKISRVEAEDVGVYYCAQGTSVPFTFGQGTKLEIK | 0 fold |
| H183/L072 VL H34M (antibody, name in Kabat numbering, V domains shown) VH: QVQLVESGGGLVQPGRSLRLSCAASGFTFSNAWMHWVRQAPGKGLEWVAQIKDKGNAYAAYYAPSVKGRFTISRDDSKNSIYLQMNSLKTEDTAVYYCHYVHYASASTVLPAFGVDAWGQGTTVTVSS VL: DIVMTQSPLSLPVTPGEPASISCQASQELVHMNRNTYLMWYQQKPGQAPRLLIYKVSNRFPGVPDRFSGSGSGTDFTLKISRVEAEDVGVYYCAQGTSVPFTFGQGTKLEIK | 0 fold |
| H183/L072 VL G91I (antibody, name in Kabat numbering, V domains shown) VH: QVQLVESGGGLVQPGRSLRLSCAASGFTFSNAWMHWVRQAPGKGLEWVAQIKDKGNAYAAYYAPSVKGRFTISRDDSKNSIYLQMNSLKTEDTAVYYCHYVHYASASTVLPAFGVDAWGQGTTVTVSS VL: DIVMTQSPLSLPVTPGEPASISCQASQELVHMNRNTYLHWYQQKPGQAPRLLIYKVSNRFPGVPDRFSGSGSGTDFTLKISRVEAEDVGVYYCAQITSVPFTFGQGTKLEIK | 0 fold |
| H183/L072 VL H27dA (antibody, name in Kabat numbering, V domains shown) VH: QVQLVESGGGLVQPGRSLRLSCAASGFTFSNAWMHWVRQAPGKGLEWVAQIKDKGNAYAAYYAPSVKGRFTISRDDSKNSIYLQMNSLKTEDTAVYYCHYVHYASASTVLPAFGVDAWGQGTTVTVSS VL: DIVMTQSPLSLPVTPGEPASISCQASQELVAMNRNTYLHWYQQKPGQAPRLLIYKVSNRFPGVPDRFSGSGSGTDFTLKISRVEAEDVGVYYCAQGTSVPFTFGQGTKLEIK | 0 fold |

Value of fold change of affinity reported for the binder H183/L072 VL T31F (antibody, name in Kabat numbering, V domains shown) VH: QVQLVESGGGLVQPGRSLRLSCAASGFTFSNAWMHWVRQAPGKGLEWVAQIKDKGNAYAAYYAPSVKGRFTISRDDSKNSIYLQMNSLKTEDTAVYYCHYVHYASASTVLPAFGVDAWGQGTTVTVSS VL: DIVMTQSPLSLPVTPGEPASISCQASQELVHMNRNFYLHWYQQKPGQAPRLLIYKVSNRFPGVPDRFSGSGSGTDFTLKISRVEAEDVGVYYCAQGTSVPFTFGQGTKLEIK is 0 fold
